Documented inhibition at 10 µM across a set of compounds
Test system: human IL-1β
Experimental Details: Inhibition of IL-1β production by stimulated human peripheral blood leukocytes in vitro (ELISA)
Format: cell-based
Test Conditions: Homo sapiens, Leukocyte, PBL, LPS stimulation, compound 10 μM; read-out: Percentage of inhibition of IL-1β production
Just the number in %, nothing appended.

Answered cases to consult:
CC[C@H]1OC(=O)[C@H](C)[C@@H](OC(=O)CCN2CCCN(CCCN3CCCC3)CC2)[C@H](C)[C@@H](O[C@@H]2O[C@H](C)C[C@H](N(C)C)[C@H]2O)[C@](C)(OC)C[C@@H](C)C(=O)N[C@H](C)[C@@H](O)[C@]1(C)O [Example 24] = 65
CC[C@H]1OC(=O)[C@H](C)[C@@H](OC(=O)CCN2CCN(CCN(CC)CC)CC2)[C@H](C)[C@@H](O[C@@H]2O[C@H](C)C[C@H](N(C)C)[C@H]2O)[C@](C)(OC)C[C@@H](C)C(=O)N[C@H](C)[C@@H](O)[C@]1(C)O [Example 18] = 44

Fill in: inhibition at 10 µM of CC[C@H]1OC(=O)[C@H](C)[C@@H](O[C@H]2C[C@@](C)(OC)[C@@H](O)[C@H](C)O2)[C@H](C)[C@@H](O[C@@H]2O[C@H](C)C[C@H](N(C)C)[C@H]2O)[C@](C)(OC)C[C@@H](C)C(=O)[C@H](C)[C@@H](O)[C@]1(C)O [clarithromycin, reference compound] is ___ 0

So what's the measured inhibition at 10 µM for this one? CC[C@H]1OC(=O)[C@H](C)[C@@H](OC(=O)CCN(CC)CC)[C@H](C)[C@@H](O[C@@H]2O[C@H](C)C[C@H](N(C)C)[C@H]2O)[C@](C)(OC)C[C@@H](C)C(=O)[C@H](C)[C@@H](O)[C@]1(C)O [Example 5] 75

For the compound shown here, CC[C@H]1OC(=O)[C@H](C)[C@@H](OC(=O)CCN2CCN(CCN(C)C)CC2)[C@H](C)[C@@H](O[C@@H]2O[C@H](C)C[C@H](N(C)C)[C@H]2O)[C@](C)(OC)C[C@@H](C)C(=O)N[C@H](C)[C@@H](O)[C@]1(C)O [Example 19] , give the reported inhibition at 10 µM. 44

What does the record list as inhibition at 10 µM for CC[C@H]1OC(=O)[C@H](C)[C@@H](OC(=O)CCN(CC)CC)[C@H](C)[C@@H](O[C@@H]2O[C@H](C)C[C@H](NC)[C@@H]2O)[C@](C)(OC)C[C@@H](C)C(=O)N[C@H](C)[C@@H](O)[C@]1(C)O [Example 10] ? 70
